EXPERIMENTAL TARGET: CALP-H301A mutant (UniProt Q9HD26 278-362)
ASSAY EXPLANATION: fluorescence anisotropy displacement; Fig 9B
ENDPOINT NAME: pKi
# reply with the number alone; pKi is -log10 of concentration in mol/L

Incoming: For the binder Ac-E(dirhodium)VQSTRL-OH (also: dirhodium metal complex at Glu side-chain carboxylate) [E^RhVQSTRL metallopeptide] , what pKi is on record?
Outgoing: 4.95
